ASSAYED TARGET: CsMYBF1 (Citrus, UniProt A0A125SL50 1-337)
Sequence (A0A125SL50 entry or part of it): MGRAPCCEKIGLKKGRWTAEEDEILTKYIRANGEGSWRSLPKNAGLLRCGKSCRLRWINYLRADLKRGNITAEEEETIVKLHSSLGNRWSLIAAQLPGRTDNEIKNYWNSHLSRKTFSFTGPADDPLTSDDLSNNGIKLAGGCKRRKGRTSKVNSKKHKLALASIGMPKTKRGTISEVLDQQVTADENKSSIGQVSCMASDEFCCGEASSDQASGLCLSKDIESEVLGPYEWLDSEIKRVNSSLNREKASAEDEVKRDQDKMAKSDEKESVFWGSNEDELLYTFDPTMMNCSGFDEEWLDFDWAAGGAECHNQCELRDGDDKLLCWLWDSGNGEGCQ
TEST: EMSA; 0.1% Nonidet P-40, 1 mM benzamidine, 0.5 mM PMSF, 0.5 mM DTT, 50 ug/mL BSA, 100 ng/uL poly(dI-dC), 5 uM Cy3 probe, 1 ug protein in 20 uL, 4 C 2 h; 6% PAGE in 0.5x TBE at 4 C; salt and pH not stated
RECORDED CONDITIONS: protein: recombinant; tags: His (pET28a); label: Cy3
ENDPOINT LABEL: binding result

Cs4CL promoter probe mutant (dsDNA) DNA 1: TTAACTGCTCTAGACACACCCA DNA 2: TGGGTGTGTCTAGAGCAGTTAA = no binding
CsCHS promoter probe mutant (dsDNA) DNA 1: TTGATTTCTAGAACCCCCATTG DNA 2: CAATGGGGGTTCTAGAAATCAA = no binding
SlFLS promoter probe WT (dsDNA) DNA 1: CTTATATCACCTACTCAACTTA DNA 2: TAAGTTGAGTAGGTGATATAAG = binds
